Property: Absorbance at 450nm at 2ug/well; scope: individual binders
STUDY SYSTEM: T1, K280-ac protein fragment (human)
T1 construct: also called mAC
T1 peptide: VQIINK(Ac)KLDLSN
ASSAY PROTOCOL: ELISA on K280-ac coated at 250 ng/well, HRP anti-human IgG
Ends that are not written are not given here.
The response must contain the number and no unit.

Example results:
>>> readout_number("ADEL-Y01h v04 antibody (antibody, V domains shown, Humanized antibody; It was detected with anti-human IgG; also called Y01h01v04) VH: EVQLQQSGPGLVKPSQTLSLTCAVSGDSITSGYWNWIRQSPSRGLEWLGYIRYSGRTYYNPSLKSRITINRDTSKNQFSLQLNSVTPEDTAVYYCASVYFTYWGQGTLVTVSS VL: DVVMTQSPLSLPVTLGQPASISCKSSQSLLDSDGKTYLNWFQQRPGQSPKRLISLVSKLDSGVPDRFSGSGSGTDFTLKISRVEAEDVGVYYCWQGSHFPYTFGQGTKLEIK")
2.32
>>> readout_number("ADEL-Y01h v06 antibody (antibody, V domains shown, Humanized antibody; It was detected with anti-human IgG; also called Y01h01v06) VH: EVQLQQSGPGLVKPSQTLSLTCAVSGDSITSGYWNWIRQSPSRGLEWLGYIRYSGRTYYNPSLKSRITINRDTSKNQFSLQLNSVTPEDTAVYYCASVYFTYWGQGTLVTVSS VL: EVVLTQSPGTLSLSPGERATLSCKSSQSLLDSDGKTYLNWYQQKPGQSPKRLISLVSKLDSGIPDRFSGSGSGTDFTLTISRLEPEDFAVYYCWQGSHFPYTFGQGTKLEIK")
2.05
>>> readout_number("ADEL-Y01h v05 antibody (antibody, V domains shown, Humanized antibody; It was detected with anti-human IgG; also called Y01h01v05) VH: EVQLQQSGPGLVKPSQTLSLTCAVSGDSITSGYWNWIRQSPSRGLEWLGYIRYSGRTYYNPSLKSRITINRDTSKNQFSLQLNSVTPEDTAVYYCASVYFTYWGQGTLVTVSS VL: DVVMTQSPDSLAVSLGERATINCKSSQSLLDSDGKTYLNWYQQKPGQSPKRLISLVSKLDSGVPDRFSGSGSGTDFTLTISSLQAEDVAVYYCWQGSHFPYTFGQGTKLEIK")
2.06
>>> readout_number("ADEL-Y01h01_v01 antibody (antibody, V domains shown, Humanized ADEL-Y01m; It was detected with anti-human IgG; also called ADEL-Y01h v01) VH: EVQLQESGPGLVKPSQTLSLTCTVSGDSITSGYWNWIRQPPGKGLEYIGYIRYSGRTYYNPSLKSRVTISRDTSKNQFSLKLSSVTAADTAVYYCASVYFTYWGQGTLVTVSS VL: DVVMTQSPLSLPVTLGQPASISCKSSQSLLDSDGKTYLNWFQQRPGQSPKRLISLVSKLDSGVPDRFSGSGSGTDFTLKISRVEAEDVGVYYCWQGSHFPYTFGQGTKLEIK")
2.42

--- query ---
Given v11 (antibody, V domains shown, also called Y01h01v11; ADEL-Y01h v11 antibody) VH: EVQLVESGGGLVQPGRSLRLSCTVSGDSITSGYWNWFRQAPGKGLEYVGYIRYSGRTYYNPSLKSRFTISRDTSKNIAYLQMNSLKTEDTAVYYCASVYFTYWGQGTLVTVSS VL: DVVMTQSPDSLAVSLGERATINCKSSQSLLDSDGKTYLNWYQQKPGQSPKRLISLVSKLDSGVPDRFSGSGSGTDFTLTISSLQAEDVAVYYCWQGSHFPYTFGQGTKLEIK , state its recorded Absorbance at 450nm at 2ug/well. 0.048
